Sourced from paper PMC9770967

Biological target: UniProt:Q14160
Sequence (Q14160 whole entry): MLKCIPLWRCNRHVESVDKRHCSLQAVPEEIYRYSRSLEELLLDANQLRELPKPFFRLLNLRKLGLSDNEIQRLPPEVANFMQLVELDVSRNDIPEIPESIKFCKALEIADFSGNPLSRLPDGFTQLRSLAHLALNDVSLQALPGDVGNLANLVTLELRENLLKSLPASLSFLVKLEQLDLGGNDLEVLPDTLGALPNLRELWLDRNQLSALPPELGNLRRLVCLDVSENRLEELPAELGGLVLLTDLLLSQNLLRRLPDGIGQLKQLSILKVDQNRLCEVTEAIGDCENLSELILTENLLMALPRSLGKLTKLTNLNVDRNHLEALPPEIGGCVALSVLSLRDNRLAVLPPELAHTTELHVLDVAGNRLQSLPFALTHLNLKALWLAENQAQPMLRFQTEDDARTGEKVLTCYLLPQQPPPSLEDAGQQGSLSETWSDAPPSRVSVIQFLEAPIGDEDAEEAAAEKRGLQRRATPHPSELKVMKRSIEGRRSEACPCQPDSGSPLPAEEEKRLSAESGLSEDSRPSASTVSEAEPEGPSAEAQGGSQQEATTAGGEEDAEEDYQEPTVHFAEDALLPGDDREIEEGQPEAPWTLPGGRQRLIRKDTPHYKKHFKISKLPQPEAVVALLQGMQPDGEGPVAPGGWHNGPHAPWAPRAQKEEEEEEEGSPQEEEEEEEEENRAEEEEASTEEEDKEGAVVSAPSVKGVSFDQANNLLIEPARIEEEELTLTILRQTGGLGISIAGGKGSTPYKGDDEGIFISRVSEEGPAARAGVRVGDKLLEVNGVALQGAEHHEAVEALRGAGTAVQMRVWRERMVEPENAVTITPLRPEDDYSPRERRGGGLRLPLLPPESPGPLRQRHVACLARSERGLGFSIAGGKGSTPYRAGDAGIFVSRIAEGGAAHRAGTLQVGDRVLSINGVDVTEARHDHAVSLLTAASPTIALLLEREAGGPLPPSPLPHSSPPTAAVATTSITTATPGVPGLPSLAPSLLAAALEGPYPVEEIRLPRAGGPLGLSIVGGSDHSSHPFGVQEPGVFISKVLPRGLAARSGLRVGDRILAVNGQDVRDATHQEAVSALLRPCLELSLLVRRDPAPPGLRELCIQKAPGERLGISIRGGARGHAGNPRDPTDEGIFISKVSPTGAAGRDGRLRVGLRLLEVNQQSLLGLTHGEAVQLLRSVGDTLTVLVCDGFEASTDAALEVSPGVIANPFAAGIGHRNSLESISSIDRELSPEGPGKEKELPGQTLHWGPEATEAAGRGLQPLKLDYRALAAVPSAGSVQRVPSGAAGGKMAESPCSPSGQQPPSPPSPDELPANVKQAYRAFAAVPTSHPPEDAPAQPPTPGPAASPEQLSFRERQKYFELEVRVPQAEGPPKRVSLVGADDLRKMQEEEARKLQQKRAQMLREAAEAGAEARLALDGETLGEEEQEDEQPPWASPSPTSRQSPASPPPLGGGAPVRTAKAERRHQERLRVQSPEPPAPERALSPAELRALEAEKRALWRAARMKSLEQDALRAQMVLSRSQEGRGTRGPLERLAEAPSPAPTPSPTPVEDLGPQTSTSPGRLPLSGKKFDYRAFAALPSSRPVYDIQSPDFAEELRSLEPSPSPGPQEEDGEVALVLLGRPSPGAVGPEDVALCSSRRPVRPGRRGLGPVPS
Test: Single-point nHU-WB, 12 PBM peptide baits, Jurkat extract
Type: binding
*1 amine or outer side, *2 acyl side, *3 side chain or, on linkers, in order; H or OH if unused. Where a SMILES comes first, the peptide text is derived from it. The star is where a group is joined. X1 = O=C(CCCC[C@@H]1SC[C@@H]2NC(=O)N[C@@H]21)NCCCOCCOCCOCCCN*; Suc = O=C(CCC(=O)[*:2])[*:1]
Measured pKd accompanies every entry in the list below.
Expect pKd as a plain number equal to -log10 of the molar concentration.

Study these solved cases before continuing.
1. CC(C)C[C@H](NC(=O)[C@H](CC(N)=O)NC(=O)[C@@H](NC(=O)[C@H](CCC(=O)O)NC(=O)[C@H](CC(=O)O)NC(=O)[C@H](Cc1c[nH]c2ccccc12)NC(=O)[C@H](C)NC(=O)[C@@H]1CCCN1C(=O)[C@H](CC(=O)O)NC(=O)[C@H](CC(N)=O)NC(=O)CCC(=O)NCCCOCCOCCOCCCNC(=O)CCCC[C@@H]1SC[C@@H]2NC(=O)N[C@@H]21)[C@@H](C)O)C(=O)O [ARHGEF7] ({X1-Suc}-NDPAWDETNL-OH; C-terminus assumed): 5.87
2. CC(C)[C@H](NC(=O)[C@@H]1CCCN1C(=O)[C@H](CO)NC(=O)[C@H](CCC(=O)O)NC(=O)[C@H](CCC(=O)O)NC(=O)[C@H](CCC(=O)O)NC(=O)[C@H](CCCCN)NC(=O)[C@@H]1CCCN1C(=O)CNC(=O)CNC(=O)CCC(=O)NCCCOCCOCCOCCCNC(=O)CCCC[C@@H]1SC[C@@H]2NC(=O)N[C@@H]21)C(=O)O [SLC16A1] ({X1-Suc}-GGPKEEESPV-OH; C-terminus assumed): 4.16

For reference, reported pKd for CSCC[C@H](NC(=O)[C@@H](NC(=O)[C@H](CO)NC(=O)[C@H](CCC(=O)O)NC(=O)[C@H](CCCCN)NC(=O)[C@H](CCC(=O)O)NC(=O)[C@H](CO)NC(=O)[C@H](C)NC(=O)[C@@H](NC(=O)[C@@H](NC(=O)CCC(=O)NCCCOCCOCCOCCCNC(=O)CCCC[C@@H]1SC[C@@H]2NC(=O)N[C@@H]21)[C@@H](C)O)C(C)C)C(C)C)C(=O)O [SLC1A5] ({X1-Suc}-TVASEKESVM-OH; C-terminus assumed) stands at 3.95

* * *

Molecular target: endogenous full-length SNX27 (Homo sapiens, UniProt Q96L92)
Construct: Supernatant fractions were probed with specific antibodies against endogenous full-length PDZ domain–containing proteins SCRIB and SNX27; endogenous in cells; host or cells: Jurkat E6.1 total cell extract
Assay: Single-point nHU-WB, 12 PBM peptide baits, Jurkat extract
Format: binding
*1 amine or outer side, *2 acyl side, *3 side chain or, on linkers, in order; H or OH if unused. Where a SMILES comes first, the peptide text is derived from it. The star is where a group is joined. X1 = O=C(CCCC[C@@H]1SC[C@@H]2NC(=O)N[C@@H]21)NCCCOCCOCCOCCCN*; Suc = O=C(CCC(=O)[*:2])[*:1]
Measured Kd accompanies every entry in the list below.
Form entry: enter the amount, then its unit.

Study these solved cases before continuing.
1. CSCC[C@H](NC(=O)[C@@H](NC(=O)[C@H](CO)NC(=O)[C@H](CCC(=O)O)NC(=O)[C@H](CCCCN)NC(=O)[C@H](CCC(=O)O)NC(=O)[C@H](CO)NC(=O)[C@H](C)NC(=O)[C@@H](NC(=O)[C@@H](NC(=O)CCC(=O)NCCCOCCOCCOCCCNC(=O)CCCC[C@@H]1SC[C@@H]2NC(=O)N[C@@H]21)[C@@H](C)O)C(C)C)C(C)C)C(=O)O [SLC1A5] ({X1-Suc}-TVASEKESVM-OH; C-terminus assumed): 8.91 µM
2. CC(C)[C@H](NC(=O)[C@@H]1CCCN1C(=O)[C@H](CO)NC(=O)[C@H](CCC(=O)O)NC(=O)[C@H](CCC(=O)O)NC(=O)[C@H](CCC(=O)O)NC(=O)[C@H](CCCCN)NC(=O)[C@@H]1CCCN1C(=O)CNC(=O)CNC(=O)CCC(=O)NCCCOCCOCCOCCCNC(=O)CCCC[C@@H]1SC[C@@H]2NC(=O)N[C@@H]21)C(=O)O [SLC16A1] ({X1-Suc}-GGPKEEESPV-OH; C-terminus assumed): 6.17 µM
3. CC(C)C[C@H](NC(=O)[C@H](CC(N)=O)NC(=O)[C@@H](NC(=O)[C@H](CCC(=O)O)NC(=O)[C@H](CC(=O)O)NC(=O)[C@H](Cc1c[nH]c2ccccc12)NC(=O)[C@H](C)NC(=O)[C@@H]1CCCN1C(=O)[C@H](CC(=O)O)NC(=O)[C@H](CC(N)=O)NC(=O)CCC(=O)NCCCOCCOCCOCCCNC(=O)CCCC[C@@H]1SC[C@@H]2NC(=O)N[C@@H]21)[C@@H](C)O)C(=O)O [ARHGEF7] ({X1-Suc}-NDPAWDETNL-OH; C-terminus assumed): 1.51 µM

Kindly review the next molecule as well.
For reference, reported Kd for CC(C)C[C@H](NC(=O)[C@@H]1CCCN1C(=O)[C@H](Cc1c[nH]cn1)NC(=O)[C@H](Cc1ccccc1)NC(=O)CCC(=O)NCCCOCCOCCOCCCNC(=O)CCCC[C@@H]1SC[C@@H]2NC(=O)N[C@@H]21)C(=O)NCC(=O)N[C@@H](C)C(=O)N[C@@H](CC(=O)O)C(=O)N[C@@H](CO)C(=O)N[C@@H](CCC(N)=O)C(=O)N[C@H](C(=O)O)C(C)C [SLC2A1] ({X1-Suc}-FHPLGADSQV-OH; C-terminus assumed) stands at 25.1 µM
